What pKd was measured for each of the following?
# SYSTEM: T1, human ST2L extracellular domain with C-terminal His6 tag (human, UniProt Q01638 19-328)
# T1 construct: also called huST2L-ECD; ST2L-ECD
# T1 sequence: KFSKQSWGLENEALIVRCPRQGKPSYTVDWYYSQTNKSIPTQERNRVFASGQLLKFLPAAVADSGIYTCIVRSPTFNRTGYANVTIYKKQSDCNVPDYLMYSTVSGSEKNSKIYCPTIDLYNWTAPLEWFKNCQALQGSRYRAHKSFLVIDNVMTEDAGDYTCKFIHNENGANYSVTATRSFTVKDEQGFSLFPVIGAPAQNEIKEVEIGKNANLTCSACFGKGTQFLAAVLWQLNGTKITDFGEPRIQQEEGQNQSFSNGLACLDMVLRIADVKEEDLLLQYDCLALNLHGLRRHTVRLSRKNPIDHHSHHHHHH
# EXPERIMENT SUMMARY: SPR, mAb captured, ST2L-ECD in solution
Numbers only, as −log10 of the molar value.

STLM218 (antibody, V domains shown, frameworks VH3-23 / Vk-L6) VH: EVQLLESGGGLVQPGGSLRLSCAASGFTFSVDSMFWVRQAPGKGLEWVSSIEGNGGATYYADSVKGRFTISRDNSKNTLYLQMNSLRAEDTAVYYCARDPWSTEGSFFVLDYWGQGTLVTVSS VL: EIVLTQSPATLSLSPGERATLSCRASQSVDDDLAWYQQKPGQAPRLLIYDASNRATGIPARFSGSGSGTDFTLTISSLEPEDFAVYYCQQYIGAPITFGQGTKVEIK | 10.64

Turning to the following binder.
Report measured pKd; entry is STLM219 (antibody, V domains shown, frameworks VH3-23 / Vk-L6) VH: EVQLLESGGGLVQPGGSLRLSCAASGFTFSGYDMFWVRQAPGKGLEWVSDIGGEGGSTNYADSVKGRFTISRDNSKNTLYLQMNSLRAEDTAVYYCARDPWSTEGSFFVLDYWGQGTLVTVSS VL: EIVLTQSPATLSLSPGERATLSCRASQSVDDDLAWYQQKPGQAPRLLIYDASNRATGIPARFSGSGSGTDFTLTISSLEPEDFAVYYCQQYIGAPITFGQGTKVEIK 10.57
